assay: EWS/Fli-driven NR0B1 reporter inhibitors, primary screen, A673 cells, NR0B1 luciferase, luminescence, MLPCN library (AID 651661); conditions: viability-normalised, at 12.6 µM, stronger effect = higher value;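 further: firefly luciferase signal divided by Alamar Blue viability fluorescence both relative to DMSO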
In all, about 350,000 compounds went through this assay and about 2,300 (0.66%) were called active. The entries come from a sample that favours actives as a whole.
result-type: inhibition (%)

C[C@@H](NC(=O)C[C@H]1CC[C@H]2[C@H](COc3ccc(NS(=O)(=O)c4ccc(Cl)cc4)cc3C(=O)N2C)O1)c1ccccc1; 13.8
CO[C@H]1CN(C)C(=O)c2ccc(NS(C)(=O)=O)cc2OC[C@@H](C)N(Cc2ccccc2)C[C@H]1C; -2.52
COc1ccc2c3c(n(C)c2c1)[C@H](CO)N(CC1CCOCC1)CC31CCN(C(C)=O)CC1; 0.574
O=C(Nc1ccncc1)c1cc(-c2ccccn2)nc2ccc(Br)cc12; 17
